These data points were gathered from patent US6630500B2.

# tested-on: MLK1 (Homo sapiens, UniProt P80192)
# Construct: 1 μg/ml of baculoviral GST-MLK1KD; GST (N); made in house
# Sequence (P80192 144-412 limits assumed, species assumed): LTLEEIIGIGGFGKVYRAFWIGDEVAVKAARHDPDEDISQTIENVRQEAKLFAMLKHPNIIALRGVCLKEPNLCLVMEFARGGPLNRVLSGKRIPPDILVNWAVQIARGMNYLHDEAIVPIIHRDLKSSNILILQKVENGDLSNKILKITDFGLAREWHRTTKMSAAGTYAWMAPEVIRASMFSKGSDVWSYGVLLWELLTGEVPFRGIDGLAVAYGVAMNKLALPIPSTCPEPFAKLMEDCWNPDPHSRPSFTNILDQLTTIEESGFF
# protocol-details: Inhibition of Mixed Lineage Kinase-1 (MLK1) activity
# Format: biochemical
# recorded-conditions: 100 nM compound; 60 μM ATP
# Method: The kinase activity of MLK1 was assessed using the Millipore Multiscreen TCA “in-plate” format as described for protein kinase C (Pitt & Lee, J. Biomol. Screening, 1: 47-51, 1996). Briefly, each 50-μl assay mixture contained 20 mM Hepes, pH 7.2, 5 mM EGTA, 15 mM MgCl2, 25 mM β-glycerophosphate, 60 μM ATP, 0.25 μCi [γ-^32P]ATP, 0.1% BSA, 500 μ/ml myelin basic protein (UBI #13-104), 2% DMSO, […], and 1 μg/ml of baculoviral GST-MLK1KD. Samples were incubated for 15 min at 37° C. […]
# cutoff 60% applies to inhibition at 0.1 µM; >= gives Condition met, < gives Condition not met

Field: example entries. Status: answers known.
CCOCc1ccc2c(c1)c1c3c(c4c(c1n2CC(C)O)Cc1ccccc1-4)C(=O)NC3 (stereo not shown) ... Condition met
CC(C)CC(N)C(=O)OCCCn1c2ccccc2c2c3c(c4c(c21)Cc1ccccc1-4)C(=O)NC3 (stereo not shown) [C, reference compound] ... Condition not met
CCOCc1ccc2[nH]c3c4c(c5c(c3c2c1)CNC5=O)-c1ccccc1C4C(C)O (single isomer, unassigned) ... Condition met
O=C1NCc2c1c1c(c3c2c2cc(CSc4ncccn4)ccc2n3CCCO)Cc2ccccc2-1 ... Condition not met
CC(C)OC(C)c1ccc2c(c1)c1c3c(c4c(c1n2CCCO)Cc1ccccc1-4)C(=O)NC3 (stereo not shown) ... Condition met

From here, focus on the item given below.
Ask: // inclusive: inhibition at 0.1 µM at least 60%? input: `CCSCc1ccc2c(c1)c1c3c(c4c(c1n2CCO)Cc1ccccc1-4)C(=O)NC3`
Result: Condition met
